Target: 5-hydroxytryptamine receptor 7 (Homo sapiens) (UniProt P34969)
Sequence (P34969 whole entry): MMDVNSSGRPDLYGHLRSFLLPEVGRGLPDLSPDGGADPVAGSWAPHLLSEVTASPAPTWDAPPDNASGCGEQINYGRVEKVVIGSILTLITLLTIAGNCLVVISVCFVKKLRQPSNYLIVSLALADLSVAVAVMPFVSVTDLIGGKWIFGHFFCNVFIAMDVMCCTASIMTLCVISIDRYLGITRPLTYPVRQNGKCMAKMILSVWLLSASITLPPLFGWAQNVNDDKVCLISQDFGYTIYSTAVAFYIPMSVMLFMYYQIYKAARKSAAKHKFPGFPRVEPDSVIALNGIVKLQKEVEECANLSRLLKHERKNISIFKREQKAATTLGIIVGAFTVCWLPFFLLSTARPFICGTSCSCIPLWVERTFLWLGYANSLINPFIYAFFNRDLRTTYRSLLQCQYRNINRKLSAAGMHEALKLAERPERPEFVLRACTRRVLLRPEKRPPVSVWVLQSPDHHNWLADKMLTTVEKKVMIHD
Decision: log(activity) >= 1 yields yes (1), all other cases yield no (0).

COc1ccc2c(c1)CC(=O)N2C(C(=O)NC1CCCCC1)C(C)C (stereo not given); yes (1)
COc1ccc2c(c1)CC(=O)N2C(C(=O)NC1CCCCC1)C(C)(C)C (stereo not given); yes (1)
COc1ccc2c(c1)CC(=O)N2C(C(=O)Nc1c(C)cccc1C)C(C)(C)C (stereo not given); no (0)

// next entry
[in] Evaluate COc1ccc2c(c1)CC(=O)N2C(C(=O)NC(C)(C)C)C(C)C (stereo not given) : log(activity) at minimum 1?
[out] yes (1)

====

Reported log(activity) values for the following molecules.
Target: 5-hydroxytryptamine receptor 7 (Homo sapiens);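 further: displacement of bound [3H]-SB269970 at the 5-HT7 receptor (origin unspecified), test concentration 10 µM, 60 min incubation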
Respond using a number only.

COc1ccc2c(c1)CC(=O)N2C(C(=O)NC(C)(C)C)c1ccc(Cl)cc1 (configuration not stated); 1.2
COc1ccc2c(c1)CC(=O)N2C(C(=O)NC1CCCCC1)c1ccc(Cl)cc1 (configuration not stated); 1.3
COc1ccc2c(c1)CC(=O)N2C(C(=O)Nc1c(C)cccc1C)c1ccc(Cl)cc1 (configuration not stated); 1.25
COc1ccc2c(c1)CC(=O)N2C(C(=O)NC(C)(C)C)C(C)(C)C (configuration not stated); 1.15
COc1ccc2c(c1)CC(=O)N2C(C(=O)NC(C)(C)C)c1ccccc1 (configuration not stated); 1.18

[in] Item COc1ccc2c(c1)CC(=O)N2C(C(=O)Nc1c(C)cccc1C)c1ccccc1 (configuration not stated) has what recorded log(activity)?
[out] 1.2

[in] Likewise for COc1ccc2c(c1)CC(=O)N2C(C(=O)Nc1c(C)cccc1C)C(C)C (configuration not stated) ?
[out] 1.38
